- Tested on: SN12C renal
- Assay text: NCI tumour cell line growth inhibition, 48 h; in the data active = GI50 below about 0.43 µM; inactive = the rest
Classes used: active, inactive

- Molecule: "c1ccc(CSCCNCCN(CCNCCSCc2ccccc2)CCNCCSCc2ccccc2)cc1"
  Group: "inactive"
- Molecule: "CCN(CC)c1ccc(C2=NN(C(C)=O)C(c3cc(OC)c(OC)c(OC)c3)C2)cc1 (stereo not given)"
  Group: "inactive"
- Molecule: "COc1cc2c3c(n(CCCn4ccnc4)c(=O)c2cc1OC)-c1cc2c(cc1C3=O)OCO2"
  Group: "active"
- Molecule: "CC12OC(CC(O)C1O)n1c3ccccc3c3c4c(c5c6ccccc6n2c5c31)C(=O)N(CCN1CCCC1)C4=O (stereo not given)"
  Group: "inactive"
- Molecule: "COc1cccc(C(=O)c2sc(Nc3ccc(N4CCN(C(C)C)CC4)cc3)nc2N)c1"
  Group: "inactive"
